Listed compounds paired with reported growth
test system: SN12C renal; test: NCI-60 one-dose screen, 48 h (100 = growth as untreated, 0 = no growth, -100 = all killed); settings: 10 µM unless noted
The panel holds about 83,000 compounds, 20% with a hit somewhere; the sample as a whole holds those more often.
The answer is to be given in %; state only the numeric part.

Ask: Indicate the recorded growth value for this compound: COc1ccccc1-n1c(-c2cc(O)ccc2C)cn2c3c(=O)[nH]c(=O)n(C)c3nc12
Reply: 41.6

More entries:
Ask: Indicate the recorded growth value for this compound: C=CCN=C(N)SCCCCCCSC(N)=NCC=C
Reply: 97.4

Ask: Indicate the recorded growth value for this compound: FC(F)(F)c1[nH]ncc1-c1nc2c(N3CCCCC3)cc3[nH]ncc3c2c2c1CCCC2
Reply: 2.49

Ask: Indicate the recorded growth value for this compound: CCNCc1ccc(O)c2ncccc12
Reply: 34

Ask: Indicate the recorded growth value for this compound: Nc1n[nH]c2ccc([C@@H]3Nc4cc5[nH]ncc5cc4[C@H]4C5CCC(C5)[C@@H]34)cc12 (stereo not given in full)
Reply: 36.4

Ask: Indicate the recorded growth value for this compound: CCN1C(=S)N(CC)C2C1NC(=S)N2/N=C/C=C/c1ccccc1OC (stereo not given)
Reply: 28.5

Ask: Indicate the recorded growth value for this compound: Cn1cc(-c2nn3cc(-c4ccccc4)nc3s2)c2ccccc21
Reply: 78.7

Ask: Indicate the recorded growth value for this compound: O=C1Nc2ccccc2/C1=C/c1cn(C[C@@H](O)Cn2c3ccccc3c(=O)c3ccccc32)c2ccccc12
Reply: 73.7

Ask: Indicate the recorded growth value for this compound: N=c1sc(Cc2cc(Cl)ccc2Cl)cn1CC(=O)c1ccccc1
Reply: 63

Ask: Indicate the recorded growth value for this compound: CCN1CCN(CC(=O)Nc2nc3ccc(NCc4ccc(Br)cc4)cc3s2)CC1
Reply: 63.8

Ask: Indicate the recorded growth value for this compound: COc1ccc2cc(-c3cnc4nonc4n3)ccc2c1
Reply: 38.7

Ask: Indicate the recorded growth value for this compound: Nc1ccc([N+](=O)[O-])cc1N=C/C=C/c1ccccc1
Reply: 50.6

Ask: Indicate the recorded growth value for this compound: CNC(=O)c1cc(Oc2ccc3nc(NC(=O)Nc4ccc(Cl)c(Cl)c4)sc3c2)ccn1
Reply: 57.3

Ask: Indicate the recorded growth value for this compound: Cc1cc2oc(=O)cc(CP(=O)(O)O)c2cc1O
Reply: 93.5

Ask: Indicate the recorded growth value for this compound: O=C1N[C@@H]2[C@@H](O)[C@@H](O)[C@H](O)C[C@H]2c2cc3c(c(O)c21)OCCO3
Reply: -9.95

Ask: Indicate the recorded growth value for this compound: CN1CCN(c2ccc3c(c2)nc(NNC(=O)c2cnccn2)c2cccn23)CC1
Reply: 27.6

Ask: Indicate the recorded growth value for this compound: COc1cccc(Nc2ccnc3[nH]c4ccc([N+](=O)[O-])cc4c23)c1
Reply: 65.2

Ask: Indicate the recorded growth value for this compound: CC(C)(C)C(=O)/C=C/c1ccc([N+](=O)[O-])cc1
Reply: 92.1

Ask: Indicate the recorded growth value for this compound: COc1cccc(NC(=O)c2cccc(C3CCc4c(cc(OC)c(OC)c4OC)O3)c2)c1 (stereo not given)
Reply: 55.2

Ask: Indicate the recorded growth value for this compound: COc1ccc2[nH]cc(-c3nc(-c4cn(C)c5ccncc45)cs3)c2c1
Reply: 96.2

Ask: Indicate the recorded growth value for this compound: Cc1cc2nc(-c3c(-c4ccc(F)cc4)nc4sccn34)[nH]c2cc1C
Reply: 98.6
